Tested on: RXF 393
experiment notes: NCI tumour cell line growth inhibition, 48 h
The source made the active and inactive calls. Rule as the data show it: active = GI50 up to about 1.1 µM and inactive = higher.
Reported GI50 by item:

Cn1c(CC(O)c2nc3ccccc3n2C)nc2ccccc21 (stereo unspecified) ... > 24.7 µM (inactive)
COc1ccc(-c2cc(=O)c3c(O)c(O)c(OC)cc3o2)cc1O ... > 100 µM (inactive)
CC(C)c1c(O[Si](C(C)C)(C(C)C)C(C)C)c2c3c(ccc4c3c1OC4(C)C)C(C)CC2 (stereo unspecified) ... > 100 µM (inactive)
CCCCN(CCCC)CC(=O)c1ccc2cc(Cl)c3ccccc3c2c1 ... 13.4 µM (inactive)
CN(C)C=O.O=C(Nc1nnn[nH]1)c1nc(O)cc(-c2ccccc2)n1 ... > 100 µM (inactive)

Turning now to a further record.
[in] For the compound COC(=O)C(=O)C(C#N)c1c(Cl)cccc1Cl (stereo unspecified) , give its reported GI50.
[out] > 100 µM (inactive)

---

// GI50 lookup, one value per entry
Tested on: MDA-MB-435
experiment notes: NCI tumour cell line growth inhibition, 48 h
Calls of active or inactive are those of the source. Rule as the data show it: active = GI50 up to about 1.1 µM and inactive = higher.

COC(=O)Cc1ccc(Oc2nc3ccccc3nc2-c2cccs2)cc1 ... > 100 µM (inactive)
CC1=NN(c2ccc(C)cc2)C2(C1)SCC(=O)N2c1nc2ccccc2s1 (stereo unspecified) ... 16.4 µM (inactive)
O=c1cc(/N=N\c2ccc(Cl)cc2)[nH]c(=O)[nH]1 ... 4.84 µM (inactive)

[in] Query GI50 for "CN(C)C=O.O=C(Nc1nnn[nH]1)c1nc(O)cc(-c2ccccc2)n1"
[out] > 100 µM (inactive)

[in] Name the recorded GI50 of the molecule listed here: "Cc1ccc(S(=O)(=O)SC(C)(C)C)cc1"
[out] 31.4 µM (inactive)

[in] Please give measured GI50 of the following entry: CC1CC(N)=C(C#N)C1(C#N)C#N (stereo unspecified)
[out] > 100 µM (inactive)

---

Test system: UACC-62
experiment notes: NCI tumour cell line growth inhibition, 48 h
Activity calls are given as the source filed them. Rule as the data show it: active = GI50 up to about 1.1 µM and inactive = higher.
Thanks in advance; please answer with one of these: YES for active, NO for inactive

Cc1cc(C)nc(NS(=O)(=O)c2ccc(NNC(=O)c3cccc4c(NNc5ccc(S(=O)(=O)Nc6nc(C)cc(C)n6)cc5)c5ccccc5nc34)cc2)n1 ... NO

[in] Which outcome did this test record for the compound CCOC(=O)C1(O)C(=O)C2=C3C(=O)OC(C4OC(=O)c5c(c(O)c(O)c(O)c5C31)-c1c(cc(O)c(O)c1O)C(=O)OC1COC(=O)c3cc(O)c(O)c(O)c3-c3c(cc(O)c(O)c3O)C(=O)OC14)[C@@H]2O (some centres not stated) ?
[out] NO

[in] # fetch the recorded call for "CC1=C2C(=CC(C)(C)[C@@H]2O)C(=O)[C@](C)(O)C12CC2" here
[out] YES

[in] Answer briefly: the call reported for "Cc1cc2c(c3nocc13)C(=O)c1ccccc1C2=O" in this assay.
[out] NO

[in] Hi, do you know how "CCCCN(CCCC)CC(=O)c1ccc2cc(Cl)c3ccccc3c2c1" came out in this test?
[out] NO

[in] Outcome logged for "O=c1c(C(c2ccco2)c2c(O)oc3ccccc3c2=O)c(O)oc2ccccc12" in this assay:
[out] NO

[in] Recorded test outcome, item CC(C)=CCC(O)[C@](C)(O)[C@H]1[C@H](O)C[C@@]2(C)[C@@H]3CCc4cc(O)c(OC5OC(CO)C(O)C(O)C5O)cc4C3(C)C(=O)C[C@]12C (some centres not stated)
[out] NO

---

Tested on: M14
experiment notes: NCI tumour cell line growth inhibition, 48 h
Active and inactive are the calls of the source. Cut-off read from the data, not from the text of the source: active = GI50 up to about 1.1 µM and inactive = higher.
Listing of recorded GI50 by entry.

CCOC(OC1=C(C#N)CCCC1)C(C)[Se]c1ccccc1 (centres undefined) ... 28.9 µM (inactive)
CC1=CCC(=O)[C@]2(C)C(CC(=O)O)[C@]3(C)C4=C(C)C(c5ccoc5)C[C@@H]4O[C@@H]3[C@H](O)[C@@H]12 (some centres undefined) ... > 100 µM (inactive)
Oc1cc2c3c(c1)c1cc4c(cc1c[n+]3CC2)OCO4 ... 32.1 µM (inactive)
COc1nncc2[nH]c(-c3ccccc3)cc12 ... 86.7 µM (inactive)
CCN(CC)C(=O)CC12CCCCC1=Nc1ccccc12 (centres undefined) ... > 100 µM (inactive)

[in] Find GI50 for "O=C(CON1C(=O)c2ccccc2C1=O)c1ccccc1" on M14 and write it down.
[out] 57.1 µM (inactive)

[in] State measured GI50 of the compound "CC1(C)OC[C@H](COCOP2(=O)Oc3ccc4ccccc4c3-c3c(ccc4ccccc34)O2)O1" with M14.
[out] 16.3 µM (inactive)

[in] Fill in GI50 for "C=C(CC(=O)Nc1ccc(C(=O)OC)o1)C(=O)OC" tested with M14.
[out] 19.1 µM (inactive)

[in] Write down the reported GI50 (system: M14) of "O=C1C=CC(=O)c2c1ccc1c3ccccc3n(Cc3cccc([N+](=O)[O-])c3)c21"
[out] 27.7 µM (inactive)

[in] Print M14 GI50 for "O=c1cc(/N=N\c2ccc(Cl)cc2)[nH]c(=O)[nH]1" .
[out] 3.95 µM (inactive)

[in] Write GI50 of "CCOC(=O)Nc1ccc2c(c1)c(CCCCCCc1nc3ccccc3c3ccc(NC(=O)OCC)cc13)nc1ccccc12" ; system used: M14
[out] 29.1 µM (inactive)

[in] Give the observed GI50 of "COc1c(C)c(C/C=C(\C)CC/C=C(\C)CCC=C(C)C)c(OC)c(OC)c1OC" for M14.
[out] > 100 µM (inactive)

[in] Please indicate recorded GI50 of "O=c1c(-c2ccc(Cl)cc2)nnc2n(Cc3ccccc3)c3ccccc3n12" measured with M14.
[out] 43.4 µM (inactive)

[in] Find the measured GI50 of CNC(=O)ON(C(C)=O)C(=O)NC [CARACEMIDE] with M14 as test system.
[out] 9.55 µM (inactive)

[in] Give GI50 for this entry on M14: "O=C(CN1c2ccccc2Sc2ccccc21)N1CCNCC1"
[out] > 100 µM (inactive)

[in] // fetch GI50; item: "O=S(=O)(c1ccccc1)n1cnc(CCc2ccccc2)n1" ; system: M14
[out] > 100 µM (inactive)

---

Tested on: SR
experiment notes: NCI tumour cell line growth inhibition, 48 h
The source made the active and inactive calls. No stated cut-off is given here; in the data, active = GI50 up to about 1.1 µM and inactive = higher.
Log the outcome using a class from label 1 (active), label 0 (inactive)

COc1nncc2[nH]c(-c3ccccc3)cc12 ... label 0
Cc1noc2cccc(OCc3ccccc3)c12 ... label 0
CCCCCCCCCCCCCC(=O)OC(/C=C/C(C)C)C(O)C(O)C(OC)C(=O)NC1CCCCNC1=O (stereo not given) ... label 1
CCN1CCC(O)(/C=C/c2ccc(OC)cc2)C(C(=O)/C=C/c2ccc(OC)cc2)C1 (stereo not given) ... label 0
Cc1c2cccc-2ccc2c1[nH]c1ccccc12 ... label 0
N#Cc1ccc(C2Oc3ccc(Cl)cc3C=C2[N+](=O)[O-])cc1 (stereo not given) ... label 1
O=C(COC(=O)c1cccc2c(=O)c3ccccc3[nH]c12)Nc1ccccc1 ... label 0
Fc1ccc(/C(=N/Cc2ccccc2)N2CCOCC2)cc1 ... label 0

[in] Can you look up the reported call for O=C(CC1(O)C(=O)Nc2c(Cl)cc(Cl)cc21)c1ccc([N+](=O)[O-])cc1 (stereo not given) for me?
[out] label 0

[in] What classification did "CCOc1cc2c(cc1O)/C(=N/NS(=O)(=O)c1ccc(C)cc1)C[C@@H]1[C@@H]2CC[C@]2(C)[C@@H](O)CC[C@@H]12" end up with in this test?
[out] label 1

[in] For this molecule, state the assay outcome: "COc1cc(CCNC2=CC(=O)c3nc[nH]c3C2=O)ccc1O"
[out] label 0

[in] Hi team, can someone confirm the assay call for "C=C(C)[C@@]1(O[Si](C)(C)C)CCCC[C@@H]1CC(Sc1ccccc1)Sc1ccccc1" ?
[out] label 0

[in] Recorded test outcome, item Cn1c(CC(O)c2nc3ccccc3n2C)nc2ccccc21 (stereo not given)
[out] label 0

[in] Look up the recorded call for "ClC1(c2ccccc2)c2ccc(Br)cc2-c2cc(Br)ccc21" in this test.
[out] label 0

---

System: SF-539
experiment notes: NCI tumour cell line growth inhibition, 48 h
Active and inactive are the calls of the source. Cut-off read from the data, not from the text of the source: active = GI50 up to about 1.1 µM and inactive = higher.
quantity: GI50

Answered examples (4):
Cc1nc(-c2cc3c(ccc4ccccc43)oc2=O)cs1 ... 43.3 µM (inactive)
CCCCCCCCCc1nn2c(Cc3ccccc3)nnc2s1 ... 18.1 µM (inactive)
COc1cccc(N2C(=O)C3c4[nH]c5ccccc5c4C4CCCC4C3C2=O)c1 (stereo not given) ... 7 µM (inactive)
COc1ccc(-c2nnc(CCCCCCCCc3nnc(-c4ccc(OC)cc4)o3)o2)cc1 ... 63.7 µM (inactive)

[in] Kindly indicate its recorded GI50. Item: "CC(C)(C)OC(=O)N1C(OP(=O)(Oc2ccccc2)Oc2ccccc2)=COc2cccnc21"
[out] > 100 µM (inactive)
